Data credit: patent US20240124417A1

assayedSystem: PD-1/PD-L1 (Homo sapiens, UniProt Q9NZQ7)
Construct: TVMV protease site linker (C)
Sequence (Q9NZQ7 18-239): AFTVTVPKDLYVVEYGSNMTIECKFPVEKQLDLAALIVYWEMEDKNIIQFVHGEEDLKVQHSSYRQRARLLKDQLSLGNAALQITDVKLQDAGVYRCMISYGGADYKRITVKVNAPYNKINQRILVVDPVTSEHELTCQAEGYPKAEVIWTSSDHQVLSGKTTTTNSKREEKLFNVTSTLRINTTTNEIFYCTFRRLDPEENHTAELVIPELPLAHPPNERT
methodNotes: PD-1/PD-L1 Homogenous Time-Resolved Fluorescence (HTRF) binding assay
conditionDetails: PD-L1-His 10 nM, PD-1-Ig 20 nM
pIC50: −log10 of the molar value.
quantityName: pIC50

compound	measured
Cc1c(COc2cc(OCc3cncc(C#N)c3)c(CNCc3ncc4ccccn34)cc2Cl)cccc1-c1cccc(OCCCN2CC[C@@H](O)C2)c1C [Example 2565]	8.33

a: Cc1c(COc2cc(OCc3cncc(C#N)c3)c(CN3CCCCC3c3nc(=O)[nH][nH]3)cc2Cl)cccc1-c1cccc(OCCCN2CC[C@@H](O)C2)c1C (stereo partly drawn) [Example 1010]
b: Cc1c(COc2cc(OCc3cncc(C#N)c3)c(CN(C)CC(C)c3nnn[nH]3)cc2Cl)cccc1-c1cccc(OCCCNC[C@H](O)CO)c1Cl (stereo partly drawn) [Example 1035]
Compare reported pIC50 values for a and b . Which is lower? I would appreciate it if you answered with the label of your choice. a
(a: 8.28, b: 8.89)

---

assayedSystem: PD-1/PD-L1 (Homo sapiens)
Construct: TVMV protease site linker (C)
methodNotes: PD-1/PD-L1 Homogenous Time-Resolved Fluorescence (HTRF) binding assay
conditionDetails: PD-L1-His 10 nM, PD-1-Ig 20 nM
quantityName: IC50 (nM)

Consider the following illustrative entries.
compound	IC50 [nM]
Cc1c(COc2cc(OCc3cncc(C#N)c3)c(CNCc3cccnn3)cc2Cl)cccc1-c1cccc(OCC2CCCN(CCC(F)(F)F)C2)c1Cl (stereo not shown) [Example 2064]	179
Cc1c(COc2cc(OCc3cncc(C#N)c3)c(CN(C)CCc3nc4cc(Cl)ccc4[nH]3)cc2Cl)cccc1-c1cccc(OCCCN2CC[C@@H](O)C2)c1C [Example 2517]	12.4

a: Cc1c(COc2cc(OCc3cncc(C#N)c3)c(CN(C)CCc3nn[nH]n3)cc2Cl)cccc1-c1cccc(OCCCN2CC[C@@H](O)C2)c1C [Example 1004]
b: Cc1c(COc2cc(OCc3cncc(C#N)c3)c(CN(C)Cc3ncco3)cc2Cl)cccc1-c1cccc(OCCCN2CC[C@@H](O)C2)c1C [Example 2550]
Choose between a and b : whose measured IC50 value is numerically larger? Response format: the label of the selected entry. a
